Just for reference, patent US20100317624A1 is where these values come from.

- experimental-target: S. aureus GyrB ATPase (Staphylococcus aureus, UniProt P0A0K8)
- Sequence (P0AES4 whole entry): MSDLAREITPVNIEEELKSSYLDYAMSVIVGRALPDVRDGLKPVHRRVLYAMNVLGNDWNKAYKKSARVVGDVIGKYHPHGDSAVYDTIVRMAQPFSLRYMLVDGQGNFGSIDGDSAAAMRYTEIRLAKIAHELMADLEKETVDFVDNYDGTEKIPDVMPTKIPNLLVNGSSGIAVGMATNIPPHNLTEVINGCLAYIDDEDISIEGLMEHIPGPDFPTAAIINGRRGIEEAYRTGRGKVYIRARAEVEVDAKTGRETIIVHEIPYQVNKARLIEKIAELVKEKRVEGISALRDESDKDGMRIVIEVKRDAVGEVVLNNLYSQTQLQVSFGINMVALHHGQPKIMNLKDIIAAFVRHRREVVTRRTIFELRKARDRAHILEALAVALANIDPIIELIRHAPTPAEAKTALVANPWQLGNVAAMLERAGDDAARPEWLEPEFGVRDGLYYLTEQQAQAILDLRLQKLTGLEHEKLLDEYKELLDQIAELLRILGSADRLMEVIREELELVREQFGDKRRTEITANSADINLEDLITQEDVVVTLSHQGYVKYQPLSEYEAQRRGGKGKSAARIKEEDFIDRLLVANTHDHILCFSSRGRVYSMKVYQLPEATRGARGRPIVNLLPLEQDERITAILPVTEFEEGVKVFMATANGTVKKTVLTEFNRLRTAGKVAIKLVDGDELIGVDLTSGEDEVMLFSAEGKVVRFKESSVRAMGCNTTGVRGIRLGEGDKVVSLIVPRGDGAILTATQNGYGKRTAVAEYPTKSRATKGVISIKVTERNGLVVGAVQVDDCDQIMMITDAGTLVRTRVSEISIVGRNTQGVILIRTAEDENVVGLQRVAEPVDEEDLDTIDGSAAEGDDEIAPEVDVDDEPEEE
- Sequence (P0A0K8 whole entry): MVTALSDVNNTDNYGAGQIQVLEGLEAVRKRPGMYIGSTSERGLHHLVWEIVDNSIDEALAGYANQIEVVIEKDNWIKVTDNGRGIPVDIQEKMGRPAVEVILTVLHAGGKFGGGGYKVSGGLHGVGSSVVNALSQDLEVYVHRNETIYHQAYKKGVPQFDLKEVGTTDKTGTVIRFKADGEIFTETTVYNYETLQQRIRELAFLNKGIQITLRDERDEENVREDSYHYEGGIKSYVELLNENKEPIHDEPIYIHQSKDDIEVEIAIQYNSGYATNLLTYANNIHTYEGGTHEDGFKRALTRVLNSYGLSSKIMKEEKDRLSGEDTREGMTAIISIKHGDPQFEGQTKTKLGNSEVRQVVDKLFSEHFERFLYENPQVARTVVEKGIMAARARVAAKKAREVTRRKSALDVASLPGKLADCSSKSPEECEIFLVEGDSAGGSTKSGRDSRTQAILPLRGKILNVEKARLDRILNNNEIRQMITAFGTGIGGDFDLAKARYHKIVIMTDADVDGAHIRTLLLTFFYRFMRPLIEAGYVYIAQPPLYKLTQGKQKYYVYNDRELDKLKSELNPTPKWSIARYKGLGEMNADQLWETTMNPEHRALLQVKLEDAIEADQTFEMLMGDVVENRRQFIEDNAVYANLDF
- method-description: S. aureus GyrB ATPase inhibition (ammonium molybdate/malachite green phosphate detection)
- Format: biochemical
- recorded-conditions: compound at 1 μM; inhibition of S. aureus GyrB ATPase; read-out: Percent Inhibition (1 μM)
Where a name gives a salt, the structure may show the parent alone.
observable: inhibition at 1 µM (%)

compound: CCNC(=O)Nc1cc(-c2nc(C(F)(F)F)cs2)c(-c2ccc3c(c2)c(=O)c(C(=O)N(C)C)cn3CCN2CCN(C)CC2)cn1
experimental-target: S. aureus GyrB ATPase (Staphylococcus aureus, UniProt P0A0K8)
reported-result: 98
--
compound: CCNC(=O)Nc1cc(-c2nc(-c3ccccc3)cs2)c(-c2cc3c(=O)c(C(=O)O)cn(C[C@@H]4CCCN4CC)c3cc2OCCN(C)C)cn1
experimental-target: S. aureus GyrB ATPase (Staphylococcus aureus, UniProt P0A0K8)
reported-result: 100
--
compound: CCNC(=O)Nc1cc(-c2nc(C(F)(F)F)cs2)c(-c2ccc3c(c2)c(=O)c(C(=O)N(C)C)cn3C[C@@H]2CCCNC2)cn1
experimental-target: S. aureus GyrB ATPase (Staphylococcus aureus, UniProt P0A0K8)
reported-result: 104
--
compound: CCNC(=O)Nc1cc(-c2nc(C3CC3)cs2)c(-c2ccc3c(c2)c(=O)c(C(=O)O)cn3[C@H](COP(=O)(O)O)CC(C)C)cn1
experimental-target: S. aureus GyrB ATPase (Staphylococcus aureus, UniProt P0A0K8)
reported-result: 104
--
compound: CCNC(=O)Nc1cc(-c2nc(C(F)(F)F)cs2)c(-c2ccc3c(c2)c(=O)c(C(=O)O)cn3[C@@H](CC)COP(=O)(O)O)cn1
experimental-target: S. aureus GyrB ATPase (Staphylococcus aureus, UniProt P0A0K8)
reported-result: 120
--
compound: CCNC(=O)Nc1cc(-c2nc(C(F)(F)F)cs2)c(-c2cc3c(=O)c(C(=O)O)cn(CC)c3cc2OCCN(C)C)cn1
experimental-target: S. aureus GyrB ATPase (Staphylococcus aureus, UniProt P0A0K8)
reported-result: 110
--
compound: CCNC(=O)Nc1cc(-c2nc(C(F)(F)F)cs2)c(-c2ccc3c(c2)c(=O)c(C(=O)NCCCOP(=O)(O)O)cn3C2CC2)cn1 [Example 11, phosphate hydrochloride]
experimental-target: S. aureus GyrB ATPase (Staphylococcus aureus, UniProt P0A0K8)
reported-result: 108
--
compound: CCNC(=O)Nc1cc(-c2nc(C(F)(F)F)cs2)c(-c2cc3c(=O)c(C(=O)O)cn(CCN(C)C)c3cc2OCCN(C)C)cn1
experimental-target: S. aureus GyrB ATPase (Staphylococcus aureus, UniProt P0A0K8)
reported-result: 108
--
compound: CCNC(=O)Nc1cc(-c2nc(C(F)(F)F)cs2)c(-c2cc3c(=O)c(C(=O)O)cn(CC(C)N(C)C)c3cc2F)cn1 (stereo not drawn)
experimental-target: S. aureus GyrB ATPase (Staphylococcus aureus, UniProt P0A0K8)
reported-result: 95
--
compound: CCNC(=O)Nc1cc(-c2nc(C(F)(F)F)cs2)c(-c2ccc3c(c2)c(=O)c(C(=O)NCCOP(=O)(O)O)cn3C2CC2)cn1 [Example 9, phosphate hydrochloride]
experimental-target: S. aureus GyrB ATPase (Staphylococcus aureus, UniProt P0A0K8)
reported-result: 103
--
compound: CCNC(=O)Nc1cc(-c2nc(-c3ccccc3)cs2)c(-c2cc3c(=O)c(C(=O)O)cn(C[C@@H]4CCCN4CC)c3cc2OCCN(CC)CC)cn1
experimental-target: S. aureus GyrB ATPase (Staphylococcus aureus, UniProt P0A0K8)
reported-result: 105
--
compound: CCNC(=O)Nc1cc(-c2nc(C(F)(F)F)cs2)c(-c2ccc3c(=O)c(C(=O)NCCCOP(=O)(O)O)cn(CC4CC4)c3c2)cn1 [Example 15, phosphate hydrochloride]
experimental-target: S. aureus GyrB ATPase (Staphylococcus aureus, UniProt P0A0K8)
reported-result: 76
